Parameter: melting point. Scope: all listed entries.
reported-endpoint: melting point

1. O=[N+]([O-])c1cc(-c2nc3c(O)ncnc3s2)ccc1Oc1cccc(F)c1: 279 to 281 °C (dec.)
2. O=[N+]([O-])c1cc(-c2nc3c(O)ncnc3s2)ccc1Oc1ccc(F)cc1: 282 to 284 °C (dec.)
3. O=[N+]([O-])c1cc(-c2nc3c(O)ncnc3s2)ccc1Oc1cccnc1: 276 to 280 °C (dec.)
4. O=[N+]([O-])c1cc(-c2nc3c(O)ncnc3o2)ccc1Sc1ccc(Cl)cc1: > 250 °C
5. O=[N+]([O-])c1cc(-c2nc3c(O)ncnc3s2)ccc1Oc1ccc(Cl)cc1: 304 to 306 °C (dec.)
6. O=[N+]([O-])c1cc(-c2nc3c(O)ncnc3s2)ccc1Oc1ccccc1Cl: 283 to 288 °C (dec.)
7. O=[N+]([O-])c1cc(-c2nc3c(O)ncnc3s2)ccc1Oc1ccccc1: 278 to 281 °C (dec.)
